Values were extracted from ChEMBL document CHEMBL3244064.

# Target or system: Adrenergic receptor alpha (Rattus norvegicus) (UniProt P15823+P23944+P43140+P22086+P19328+P22909)
# Assay remarks: Stimulation of alpha-adrenergic receptor in ICEM:CER SPF Caw rat vas deferens assessed as muscle contraction after 2 to 3 mins relative to norepinephrine
# Format: protein assay
Readout: Ratio
Please give the numeric answer without any surrounding text.

Q: # get_value(readout='Ratio', item= CC(C)NCC(O)c1ccc([N+](=O)[O-])cc1 (stereo not drawn) )
Result: 0.0045

Q: # get_value(readout='Ratio', item= CC(C)N1CCOC(c2ccc([N+](=O)[O-])cc2)C1 (stereo not drawn) )
Result: 0.0045

Q: # get_value(readout='Ratio', item= O=[N+]([O-])c1ccc(C2CNCCO2)cc1 (stereo not drawn) )
Result: 0.0063

Q: # get_value(readout='Ratio', item= CC(C)(C)N1CCOC(c2ccc([N+](=O)[O-])cc2)C1 (stereo not drawn) )
Result: 0.0029

Q: # get_value(readout='Ratio', item= CNCC(O)c1ccc([N+](=O)[O-])cc1 (stereo not drawn) )
Result: 0.0047

Q: # get_value(readout='Ratio', item= NCC(O)c1ccc([N+](=O)[O-])cc1 (stereo not drawn) )
Result: 0.0075

Q: # get_value(readout='Ratio', item= CN1CCOC(c2ccc([N+](=O)[O-])cc2)C1 (stereo not drawn) )
Result: 0.0014

Q: # get_value(readout='Ratio', item= CC(C)(C)NCC(O)c1ccc([N+](=O)[O-])cc1 (stereo not drawn) )
Result: 0.0012
